SYSTEM: Carbonic anhydrase 12 (Homo sapiens)
Sequence (O43570 whole entry): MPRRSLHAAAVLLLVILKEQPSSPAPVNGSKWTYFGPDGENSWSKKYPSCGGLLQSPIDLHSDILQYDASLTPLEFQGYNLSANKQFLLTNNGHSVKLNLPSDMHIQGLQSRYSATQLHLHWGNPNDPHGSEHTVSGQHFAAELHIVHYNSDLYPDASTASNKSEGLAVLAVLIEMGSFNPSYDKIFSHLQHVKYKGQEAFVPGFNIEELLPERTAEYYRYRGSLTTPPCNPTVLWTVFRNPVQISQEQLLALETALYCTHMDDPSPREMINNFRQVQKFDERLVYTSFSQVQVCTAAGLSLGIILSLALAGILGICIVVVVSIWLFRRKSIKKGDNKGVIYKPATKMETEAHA
PROCEDURE DETAILS: Inhibition of human recombinant carbonic anhydrase 12 preincubated for 15 mins prior to testing measured for 10 to 100 secs by phenol red-based stopped-flow CO2 hydration assay
READOUT TYPE: Ki (nM)

1. NS(=O)(=O)c1ccc(NC(=O)Nc2cccc(Cl)c2)cc1 | 8.5

----------
pKi: −log10 of the molar value.
Entries with reported pKi on Carbonic anhydrase 9 (Homo sapiens)
READOUT TYPE: pKi

1) CC(=O)c1ccc(NC(=O)Nc2cccc(S(N)(=O)=O)c2)cc1 | 6.75
2) NS(=O)(=O)c1ccc(NC(=O)Nc2ccccc2F)cc1 | 8.11
3) NS(=O)(=O)c1ccc(NC(=O)Nc2ccc(F)c(F)c2F)cc1 | 8.02
4) NS(=O)(=O)c1ccc(NC(=O)Nc2cc(Cl)ccc2Cl)cc1 | 8.05

----------
SYSTEM: Carbonic anhydrase 2 (Homo sapiens, UniProt P00918)
PROCEDURE DETAILS: Inhibition of human recombinant carbonic anhydrase 2 preincubated for 15 mins prior to testing measured for 10 to 100 secs by phenol red-based stopped-flow CO2 hydration assay
pKi: −log10 of the molar value.
READOUT TYPE: pKi

1) NS(=O)(=O)c1ccc(NC(=O)Nc2cccc(Cl)c2)cc1 | 8.00
